# target_system: Metabotropic glutamate receptor 2 (Homo sapiens)
# Sequence (Q14416 whole entry): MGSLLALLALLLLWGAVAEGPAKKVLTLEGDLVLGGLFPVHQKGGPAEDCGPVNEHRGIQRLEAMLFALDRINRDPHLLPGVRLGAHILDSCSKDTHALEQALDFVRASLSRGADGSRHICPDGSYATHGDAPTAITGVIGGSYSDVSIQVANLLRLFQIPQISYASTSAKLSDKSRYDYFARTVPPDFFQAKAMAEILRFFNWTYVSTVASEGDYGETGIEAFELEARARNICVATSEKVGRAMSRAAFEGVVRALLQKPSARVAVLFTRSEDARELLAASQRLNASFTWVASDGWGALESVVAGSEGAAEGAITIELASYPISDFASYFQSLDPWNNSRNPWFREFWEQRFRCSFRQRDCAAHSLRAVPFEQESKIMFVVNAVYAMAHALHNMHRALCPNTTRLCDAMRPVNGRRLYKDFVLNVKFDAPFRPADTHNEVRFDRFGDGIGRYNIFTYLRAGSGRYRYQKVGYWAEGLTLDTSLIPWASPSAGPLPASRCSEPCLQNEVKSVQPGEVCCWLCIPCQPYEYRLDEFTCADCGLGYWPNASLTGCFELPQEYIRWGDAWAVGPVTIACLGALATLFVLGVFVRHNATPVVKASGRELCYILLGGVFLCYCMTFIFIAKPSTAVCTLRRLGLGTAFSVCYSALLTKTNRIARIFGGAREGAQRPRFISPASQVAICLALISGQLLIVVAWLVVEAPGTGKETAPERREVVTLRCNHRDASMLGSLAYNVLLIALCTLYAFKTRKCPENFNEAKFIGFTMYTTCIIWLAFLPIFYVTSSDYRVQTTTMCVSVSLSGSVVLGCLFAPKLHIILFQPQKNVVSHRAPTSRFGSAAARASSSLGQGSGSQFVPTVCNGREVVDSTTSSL
# measurement_notes: Assessment of mGlu2 Receptor Negative Allosteric Modulator Activity: Human mGlu2 receptor stable expressing cells were prepared and incubated. Luminescence signals by mGlu2 receptor stimulation were detected with FDSS7000 (Hamamatsu Photonics). The compound solution prepared above was added to a plate where cells and luminescent substrates were added (10 μl/well). After 120 seconds of the addition, EC80 Glutamate-containing solution was added thereto (10 μl/well), and luminescence signals were measured for 300 seconds after the addition (center wavelength: 465 nm) for calculation of RLU (Integration). mGlu2 receptor negative allosteric modulator activity of a compound was calculated by (100-100×(RLU of each compound and concentration)/(RLU of DMSO group)).The present compound was assessed with the above biological test, and the compounds with mGlu2 receptor negative allosteric modulator activity were found out.
pIC50: −log10 of the molar value.
property_measured: pIC50

>>> value("C[C@H]1CN(c2ccc(Cl)c(F)c2)C(=O)c2c(-c3ccc4nccn4c3)cnn21")
7.74
>>> value("Cc1cnc2ccc(-c3cnn4c3C(=O)N(c3ccc(C(F)(F)F)cc3)C[C@@H]4C)cn12")
8.04
>>> value("C[C@H]1CN(c2ccc(C(F)(F)F)cn2)C(=O)c2c(-c3ccc4nccn4c3)cnn21")
7.80
>>> value("CCc1cnc2ccc(-c3cnn4c3C(=O)N(c3ccc(C(F)(F)F)cc3)C[C@@H]4C)cn12")
8.11
>>> value("C[C@H]1CN(c2ccc3c(c2)OC(F)(F)O3)C(=O)c2c(-c3ccc4nccn4c3)cnn21")
7.72
>>> value("Cc1cc(N2C[C@H](C)n3ncc(-c4ccc5ncc(C)n5c4)c3C2=O)ccc1F")
7.80
>>> value("C[C@H]1CN(c2ccc(Cl)cc2)C(=O)c2c(-c3ccc4nccn4c3)cnn21")
7.59
